Measured Target: full-length SARM1 (FL-SARM1) (Homo sapiens)
Method Notes: FL-SARM1 cellular lysate assay (NAD/NADH-Glo detection of remaining NAD+, NMN-activated)
Condition Info: Activity (μM) (IC50), 11 point curve
Listed here are compounds together with their documented IC50.

Compound | Measured Target | Unit Spec | IC50
Cc1ccc(NC(=O)[C@@H]2CC[C@@H](C3CC3)N2c2ccccn2)cc1-c1ncc(F)cn1 (racemic) [Example 274] | full-length SARM1 (FL-SARM1) (Homo sapiens) | µM | 1.2
Cc1ccc(NC(=O)C2CC3CC3CN2c2ccccn2)cc1-c1ncc(F)cn1 (mixture of isomers) [Example 260] | full-length SARM1 (FL-SARM1) (Homo sapiens) | µM | 1.3
Cc1ccc(NC(=O)[C@@H]2[C@@H]3CC[C@H]2N(CC(F)(F)F)C3)cc1-c1ccccn1 (single isomer, unassigned) [Example 105] | full-length SARM1 (FL-SARM1) (Homo sapiens) | µM | 17
Cc1ccc(NC(=O)[C@H]2C[C@@H](C3CC3)C2)cc1-c1ccccn1 (single isomer, unassigned) [Example 122] | full-length SARM1 (FL-SARM1) (Homo sapiens) | µM | 0.3
Cc1ccc(NC(=O)[C@@H]2C[C@H](C(F)(F)F)CN2c2ncccn2)cc1-c1cccnn1 [Example 174] | full-length SARM1 (FL-SARM1) (Homo sapiens) | µM | 25
Cc1ccc(NC(=O)C2(O)CCCC2)cc1-c1ccccn1 [Example 115] | full-length SARM1 (FL-SARM1) (Homo sapiens) | µM | 36
O=C(Nc1ccc(C(F)(F)F)c(-c2ccc(F)cn2)c1)N1C2CCCC1C2 [Example 56] | full-length SARM1 (FL-SARM1) (Homo sapiens) | µM | 2.2

###

Measured Target: full-length SARM1 (FL-SARM1) (Homo sapiens)
Sequence (Q6SZW1 28-724): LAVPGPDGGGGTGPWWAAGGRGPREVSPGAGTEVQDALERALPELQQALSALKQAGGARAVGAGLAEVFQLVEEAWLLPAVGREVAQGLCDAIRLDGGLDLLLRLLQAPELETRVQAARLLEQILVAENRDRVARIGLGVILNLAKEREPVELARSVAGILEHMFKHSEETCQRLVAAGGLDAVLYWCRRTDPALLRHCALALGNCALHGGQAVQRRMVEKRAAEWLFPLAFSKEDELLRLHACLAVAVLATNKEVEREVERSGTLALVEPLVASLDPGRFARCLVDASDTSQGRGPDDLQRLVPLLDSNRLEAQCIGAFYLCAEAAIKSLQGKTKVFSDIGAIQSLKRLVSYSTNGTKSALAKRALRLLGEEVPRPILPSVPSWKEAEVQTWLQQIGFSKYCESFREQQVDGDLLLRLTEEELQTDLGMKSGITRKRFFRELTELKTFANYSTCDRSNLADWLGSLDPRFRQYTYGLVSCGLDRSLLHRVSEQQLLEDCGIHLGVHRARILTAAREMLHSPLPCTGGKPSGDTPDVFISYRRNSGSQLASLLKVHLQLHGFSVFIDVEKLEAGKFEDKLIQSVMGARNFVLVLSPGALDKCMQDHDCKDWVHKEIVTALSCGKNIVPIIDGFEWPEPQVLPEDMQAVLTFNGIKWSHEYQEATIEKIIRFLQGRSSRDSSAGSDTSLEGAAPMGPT
Method Notes: FL-SARM1 cellular lysate assay (NAD/NADH-Glo detection of remaining NAD+, NMN-activated)
Condition Info: Activity (μM) (IC50), 11 point curve

Compound | Measured Target | IC50 / µM
Cc1ccc(NC(=O)[C@H]2C[C@H]2c2ccccc2)cc1-c1cccnn1 | full-length SARM1 (FL-SARM1) (Homo sapiens) | 0.6
Cc1ccc(NC(=O)N2C3C[C@@H](C)C[C@H]2C3)cc1-c1cc(Cl)cnn1 | full-length SARM1 (FL-SARM1) (Homo sapiens) | 0.01
Cc1cc(F)c(NC(=O)N2C3C[C@@H](C)C[C@H]2C3)cc1-c1ncc(F)cn1 | full-length SARM1 (FL-SARM1) (Homo sapiens) | 0.02
Cc1cc(Cl)c(NC(=O)N2C3CCCC2C3)cc1-c1ccccn1 | full-length SARM1 (FL-SARM1) (Homo sapiens) | 1.5
Cc1ccc(NC(=O)C2CC3CC[C@H]2C3)cc1-c1ccccn1 (single isomer, unassigned) [Example 139] | full-length SARM1 (FL-SARM1) (Homo sapiens) | 0.2
Cc1ccc(NC(=O)N2[C@@H]3C[C@@H](C)C[C@H]2C3)cc1-c1ccccn1 | full-length SARM1 (FL-SARM1) (Homo sapiens) | 0.01
Cc1ccc(-c2cc(NC(=O)[C@@H]3CC3(F)F)ccc2C)nc1 | full-length SARM1 (FL-SARM1) (Homo sapiens) | 2.5
Cc1cc(F)c(NC(=O)N2CC3CC2c2ccccc23)cc1-c1cccnn1 (single isomer, unassigned) [Example 201] | full-length SARM1 (FL-SARM1) (Homo sapiens) | 2

Where these numbers come from: patent US20250171462A1
